Molecular target: α1β2γ2S GABAA-R (Rattus norvegicus, UniProt P18508+P62813)
Sequence (P62813 28-455, one chain of several): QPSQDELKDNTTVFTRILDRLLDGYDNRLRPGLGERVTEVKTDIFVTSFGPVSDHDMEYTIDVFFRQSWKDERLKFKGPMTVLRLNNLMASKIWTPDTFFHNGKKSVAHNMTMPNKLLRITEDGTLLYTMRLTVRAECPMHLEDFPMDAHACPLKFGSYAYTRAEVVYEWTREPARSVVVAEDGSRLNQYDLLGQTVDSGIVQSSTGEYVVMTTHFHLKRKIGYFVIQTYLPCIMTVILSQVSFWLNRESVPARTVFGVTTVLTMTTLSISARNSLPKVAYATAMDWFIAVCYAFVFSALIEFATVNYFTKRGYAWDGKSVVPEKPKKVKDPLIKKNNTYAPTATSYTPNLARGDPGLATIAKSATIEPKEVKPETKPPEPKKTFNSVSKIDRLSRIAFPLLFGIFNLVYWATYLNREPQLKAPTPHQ
Experiment: cell-based
Conditions: α1β2γ2S, GABA EC10, number of oocytes in parentheses; read-out: EC50
Provide the recorded EC50 for the entries that follow.
Numbers only; they are read as µM.

Noted for O=C(c1ccccn1)c1cnn2c(-c3ccncc3)ccnc12 [ocinaplon] : its EC50 reads 2.93

Form: compound = O=C(c1ccccn1)c1cnn2c(-c3cc[n+]([O-])cc3)ccnc12 [DOV 315,090] ; EC50 = 4.87

###

Biological target: α2β2γ2S GABAA-R (Rattus norvegicus, UniProt P18508+P23576)
Sequence (P23576 29-451): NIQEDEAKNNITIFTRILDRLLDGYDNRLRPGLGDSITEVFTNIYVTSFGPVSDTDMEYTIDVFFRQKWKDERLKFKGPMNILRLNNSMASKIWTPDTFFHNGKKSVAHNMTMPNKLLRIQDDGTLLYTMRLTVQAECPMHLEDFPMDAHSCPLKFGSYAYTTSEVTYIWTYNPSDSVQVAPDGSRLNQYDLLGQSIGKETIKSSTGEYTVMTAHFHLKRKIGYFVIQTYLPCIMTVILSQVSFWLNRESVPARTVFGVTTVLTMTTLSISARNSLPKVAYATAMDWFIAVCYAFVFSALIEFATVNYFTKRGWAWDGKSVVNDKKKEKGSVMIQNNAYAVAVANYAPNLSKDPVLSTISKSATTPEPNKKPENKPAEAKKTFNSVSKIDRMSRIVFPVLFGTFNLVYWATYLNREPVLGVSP
Sequence (P63138 25-474 partner limits assumed): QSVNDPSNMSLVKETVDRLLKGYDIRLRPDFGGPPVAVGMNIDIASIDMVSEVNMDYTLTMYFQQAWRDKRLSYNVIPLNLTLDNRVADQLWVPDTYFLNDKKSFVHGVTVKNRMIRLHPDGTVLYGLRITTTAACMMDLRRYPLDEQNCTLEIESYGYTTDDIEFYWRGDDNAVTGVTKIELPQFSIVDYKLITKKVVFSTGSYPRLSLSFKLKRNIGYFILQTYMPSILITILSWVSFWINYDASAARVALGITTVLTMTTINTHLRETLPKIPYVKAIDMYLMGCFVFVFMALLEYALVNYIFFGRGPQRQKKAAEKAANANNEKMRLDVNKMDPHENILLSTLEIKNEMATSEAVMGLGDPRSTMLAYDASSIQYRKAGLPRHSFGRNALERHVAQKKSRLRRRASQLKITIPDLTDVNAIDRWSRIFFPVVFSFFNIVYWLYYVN
Sequence (P18508 39-466): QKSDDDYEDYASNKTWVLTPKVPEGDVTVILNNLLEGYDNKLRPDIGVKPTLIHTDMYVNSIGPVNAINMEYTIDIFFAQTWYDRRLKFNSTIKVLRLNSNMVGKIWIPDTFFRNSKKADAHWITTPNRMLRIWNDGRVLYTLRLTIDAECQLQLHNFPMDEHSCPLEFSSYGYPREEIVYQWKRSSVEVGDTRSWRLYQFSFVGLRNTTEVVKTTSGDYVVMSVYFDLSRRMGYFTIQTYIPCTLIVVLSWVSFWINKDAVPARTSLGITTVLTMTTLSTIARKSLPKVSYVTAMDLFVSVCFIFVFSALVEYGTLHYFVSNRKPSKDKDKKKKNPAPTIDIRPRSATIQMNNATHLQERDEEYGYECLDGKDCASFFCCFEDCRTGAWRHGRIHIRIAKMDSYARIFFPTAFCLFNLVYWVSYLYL
Experiment: biochemical
Format: binding
Conditions: [3H]Ro15-1788 displacement, n = 3, read-out: IC50
MEASUREMENT KIND: pIC50
Entry type: numeric. Quantity: pIC50, the -log10 of concentration in molar units.

Entry `O=C(c1ccccn1)c1cnn2c(-c3cc[n+]([O-])cc3)ccnc12` , pIC50 reported as 4.62
